system: RPMI-8226 leukemia; experiment: NCI-60 one-dose screen, 48 h; settings: 10 µM unless noted
Compounds without any hit were thinned out: in the full panel of roughly 83,000, 20% have a hit. Calls of active or inactive are those of the source. Rule for the calls: active = growth percent below 10; inactive = the rest.
Choose one outcome from this list and give only that: 1 (active), 0 (inactive)

Take a look at these entries with their results.
INSERT INTO results (compound, label_class) VALUES
  ('Cc1ccc(C(=O)CSc2nc3ccccc3c(=O)n2C)cc1', 0),
  ('Brc1ccc2[nH]cc(-c3nn4cc(-c5nccs5)nc4s3)c2c1', 1),
  ('CCCCCC[n+]1ccc(SCC(=O)n2ccc3ccccc32)c2ccccc21', 0),
  ('Cn1c(SCC(=O)c2ccc(Br)cc2)nc2ccccc2c1=O', 0),
  ('CC(=O)OCCCCN1C=C/C(=C\C(=O)n2ccc3ccccc32)c2ccccc21', 0);

Then there is this compound:
Which outcome did this test record for the compound COc1ccc(C2c3[nH]c4ccc(Cl)cc4c3CCN2c2oc(CO)nc2C#N)cc1 (stereo unspecified) ?
0
